Parameter PBM binding z-score: see the listing below.
Test system: RARa homodimer (NR concentration 270 nM)
assayProcedure: PBM binding z-score (relative to random genomic background probes); higher = stronger binding; sequences stand for … in GC…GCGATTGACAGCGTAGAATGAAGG

recordSequence	PBM binding z-score
GGAACGAGGGCAAAGTTGATAGCTTCTGTCGACG	-0.449
CCGAGTAGGTTCTGGGGCATTCAGGCAACGGTGA	-0.226
CCAGATAGGTGAAAGGTAACTCAGTCTGGTACGC	0.659
TCTCGGAGGACACGAAGGGTCAGAGCTCGACATC	-0.314
TCTTGTAGATCGACAGGAGGTTAAGAAAGATCGA	-0.333
TCTGCTAGGTCCACGATGGTCAGCTAATCTGCTA	-1.27
CCTATTGGGCCACGAAAGGTCATTGATTCAGTGA	2.11
CATACAGGGTCAGCTAGGCCAAAGTAGGGACGGC	0.847
GCTAGTTGCTCAGTAAAAGGTCACACACCGGTCG	1.56
ATAAGTAGGTTACATCCGGGTCATTCAGGCTATG	1.79
ATCACTAGGTAAGACTCAGTTCAGTGAAGAACGC	1.03
ATTAGCAGGCCAAGTTTGGGTCACTCAAACAAAG	-0.273
CAAACTAGGTCAAGGGTCAAAGTCGAGCCAACCA	1.84
GCTGCTAGGGCAGGTTGGTCAGCTAACGGGTACG	-1.07
CCTTACGGATCACGAGGTTATAGCACGACGAGCG	0.995
AGAATGAGGTTATACGTAGATCAGGGAAGAAAGT	0.738
TCTGTTAGGTCAGTTGGTCAGCTAACGAGCTGCC	0.814
CAGCCTAGGCCAGGGCCAGTATAGGAGGAACGTT	-0.971
CTACCAAGGTGAACAAGGTCGTTCATTACTATTC	0.251
AGTCAGAGTTCACTAGGTAACGTAAGATTCAGCT	0.385
TGAATGGGGTTATAAGATCAGGGAACGTTGCAAA	2.01
CTACCAAGGTGAACAAGGTCGTTTATTACTATTC	0.698
GCTAGTTGGTCAGTAAAAGGTCGCACACCGGTCG	0.227
ACCTCTAGGTAAAGATAGTTCAGTGAATGCAAAT	-0.309
CCTTACGGGTCAAGGTTATTGCACGGGTGGTACG	0.978
TAGCCTAGCTCATTGGGCCAGTATAGTACGCATC	-1.17

----------
System: PPARg homodimer (NR concentration 180 nM)
assayProcedure: PBM binding z-score (relative to random genomic background probes); higher = stronger binding; sequences stand for … in GC…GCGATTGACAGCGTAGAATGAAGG
Recorded PBM binding z-score by entry

recordSequence	PBM binding z-score
GGAACGAGGGCAATCGAGTTGATAGCATGGCGAT	-0.25
ATATGTAGGTTATCTGGTCATTCAGTTTGCGCAT	2.41
TAGCCTAGCTCATGGGCCAGTATACCACGCGAAC	-0.407
ATACCGAGGTGATCGTGAGGTCGTTGATACTAAC	0.847
TCTGCTAGGACAACGATGGTCAGCTAATCTGCTA	-1.47
CAAACTAGGTCACACAGGTCAAAGTCCGTGCGTA	2.43
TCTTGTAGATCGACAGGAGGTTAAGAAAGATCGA	-0.189
GTACCGAGGTGAATAGGTCGTTGATGAGTAGGCG	1.09
CGTCCAAGGTCAGAGGAGGTCAGTGAAGACAGAT	3.97
TGTCAAAGTTCAAAGCTAACGTAAGTATCCACAC	2.01
CCTCACGGGTCACGAGGTTATAGCACGACGAGCG	3.5
TAGCCTAGGTCATGCGGGCCATTATAGTGTCGGC	0.864

----------
Quick list: PBM binding z-score per entry.
Test system: RARb:RXRa (NR concentration 270 nM, RXRa partner concentration 90 nM)
assayProcedure: PBM binding z-score (relative to random genomic background probes); higher = stronger binding; sequences stand for … in GC…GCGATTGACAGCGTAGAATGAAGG

recordSequence	PBM binding z-score
ACTAGCAGGCCAAGTTCGGGTCACTCAAACAAAG	2.33
ACTAGCAGACCAAGTTTGGGTCACTCAAACAAAG	0.992
TAGTCTAGGTCATGCGGGCCAGTATAGTGTCGGC	3.85
CAAACTAGCTCAAGAGGTCAAAGTCCGCTTCCCG	3.96
GAACCAAGGTGAATAGGTCGTTGATGAGTAGGCG	1.95
AGCATGAGGTTAAGATCAGGGAAACAGAATACAT	2.02

----------
Test system: RXRa DBDmut IVT, anti-RXR (DBD mutation: RXRa K156A/R161A, NR concentration 90 nM)
assayProcedure: PBM binding z-score (relative to random genomic background probes); higher = stronger binding; sequences stand for … in GC…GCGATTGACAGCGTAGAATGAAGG
Catalogue of sequences with associated PBM binding z-score
metric: PBM binding z-score

recordSequence	valueMeasured
TCTTGTAGATCAACAGGAGGTTAACAAAGATCGA	0.267
ATCTCTAGGTAAGACTCAGTTTAGTGAAGAACGC	0.443
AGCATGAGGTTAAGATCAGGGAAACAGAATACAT	0.954
ACATGTAGGTTACATCCGGGTCATTCAGGCTATG	1.4
TCTTGTAGATCAATAGAGGTTAAGAACGTGCGCT	0.923
CCGACTGGGGCAAAGGTTACCGTACTCAGTACGA	-0.356
AGAATGAGGTTATTAAGATCAGCGAATTGCGGTC	1.95
AGAATGAGTTTATACGTAGATCAGGGAAGAAAGT	3.89
AGAATGAGGTTATTAACATCAGGGAATTGCGGTC	1.83
CCGACTGAGGCATAAGGTTACCATAAGCCAGCCC	0.281
TGAATGAGGATATAAGATCAGGGAACGTTGCAAA	-0.562
CCGACTGGGGCAGAAACGTTACCATACCATCCGG	-0.654
CCTCGGAGGACAACAGGAGGTCAGATCTGCCAGA	0.415
ATCTCTAGGTAAAGTTCAGTCAAAGATCGATAGA	1.6
TCATATAGGTAAAACGTGAAAGTCGGTGTGGTAA	1.62
ATATTTAGGTTACATCCGGGTCATTCAGGCTATG	1.39
TCTCGGAGGACACGACAGGTCAGAGCTCGACATC	0.685
CGTAGTTGGTCAGGAGGTCACACACCGGATATGA	0.895
TCTCGGAGGACACGAAGTTCAGAGCTTTCCAGAG	1.08
GGAACGCGGGCAAAGTTGATAGCATCTGTCGACG	0.0126
CGAACTACGTCAAGGACAGTGAATCTCCGCACGC	0.114
TCGAGTAGGTTAGTCGGGGCATTGAGCCAACATA	0.159
AGTCAAAGTTCACTAGGTAGCGTAAGATTCAGCT	4.01
TCATATAGGTAATACAGGCGAAAGTCGGCATCTA	1.23
TAGCCTAGGTCAGTGGGCCAGTATAGTACGCATC	-0.571
CGTCCAAGGTCAAGGTCGGTGAAAGAGACTCGAA	3.67

----------
Tested on: LXRb:RXRa (NR concentration 270 nM, RXRa partner concentration 90 nM)
assayProcedure: PBM binding z-score (relative to random genomic background probes); higher = stronger binding; sequences stand for … in GC…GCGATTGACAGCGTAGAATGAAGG

recordSequence	PBM binding z-score
TCTCGGAGGACACGAATGGTCAGAGCTCGACATC	-0.483
TTACCAAGGTGAGCTGAGGTCGTTAATCCAACTC	0.852
ATCGAAAGGTAGAAGGTGAGTATACCCACCCGAA	-0.132
ATATGTGGGTTACATCCGGGTCATTCAGGCTATG	3.06
GCTTGTAGATCAAGGTTAAGAAAGACTAAGCTAA	0.55
TCTAGTTGGTCAAAGTTCACACACTCGAAATGCG	3.66
CCAGACCGGTGAGAAGGTAACTCAGCCTCGATTA	-0.175
CCTTACGGGTCGCGAGGTTATAGCACGACGAGCG	1.82
CCTACTGGGCCAACGTCATTGATCAGTCAAAGCA	-0.492
ATCTCTAGGTAAAGATAGTTCAGTCAATGCAAAT	0.948
CCGACTGGGGCATGGTTACCATAACGCACAGCCA	-0.438
TCTAGGAGGCCAGAGGGTCACTCAAGAGGTACGG	0.559
CCTACTGGGCCATCAGGTCAATGATATCAACGTT	1.15
GATACAGGGTCAGCTAGAGGCCAAAGTATGGAAA	3.09
TGTCTAAGTTCAAAGGTAACGTAAGTATCCACAC	3.38
GTACCAAGGTGGATAGGTCGTTGATGAGTAGGCG	-0.255
CCGACTGGGGCAAGGTGACCATAACGCACAGCCA	-0.293
GCTCGGAGTACAAGGTCAGAGCTTTGTCCGTAGA	1
CCTACTGCGCCATCAGGTCATTGATATCAACGTT	2.2
CCTACTGGGCCAAGGTCAGTGATCAGTCAAAGCA	0.924
TCTATTAGTTGATTAGGTCAACCGAAACAGCGGA	2.02
CCGATTGGGGCATAAGGTTACCATAAGCCAGCCC	0.749
CAAACTAGGTCACGAAAGGTCAAAGGCGAATGAC	7.15
ATCTCTAGGTAAAGATAGTTCAATGAATGCAAAT	1.44
CAAACTAGGTCAAAGGTCCAAGTCGAGCCAACCA	3.08
CTTCCAAGGTCAGAGAGGTCAGTGAATGCCGAGT	4.49
